Molecular target: T1, RF peptide (Octet assay of PS621 variants)
T1 construct: RX… with X = F
Assay: Octet (BLI), 30 C
Attribute Measured: Octet response

| Binder | Octet response |
| --- | --- |
| PS1120 (designed binder, Variant of PS621) MHSKFSHAGRICGAKFKVGEPIYRCKECSFDDTCVLCVNCFNPKDHTGHHVYTKICTEFNNGICDCGDKEAWNHTLFCKAEEG | 10.2 |
| PS1101 (designed binder, Variant of PS621) MHSKFSHAGRICGAKFKVREPIYRCKECSFDDTCVLCVNCFNPKDHTGHHVYTTICTEFNNGICDCGDKEAWNHTLFCKAEEG | 6 |
| PS1102 (designed binder, Variant of PS621) MHSKFSHAGRICGAKFKVGEPIYRCKECQFDDTCVLCVNCFNPKDHTGHHVYTTICTEFNNGICDCGDKEAWNHTLFCKAEEG | 9.3 |
| PS1104 (designed binder, Variant of PS621) MHSKFSHAGRICGAKFKVGEPIYRCKECSFDDTCVLCVNCFNPKDHRGHHVYTTICTEFNNGICDCGDKEAWNHTLFCKAEEG | 10.5 |
| PS1115 (designed binder, Variant of PS621) MHSKFSHAGRICGAKFKVGEPIYRCKECSFDDTCVLCVNCFNPKDHRGHHVYTTICTERNNGICDCGDKEAWNHELFCKAEEG | 10 |
| PS1105 (designed binder, Variant of PS621) MHSKFSHAGRICGAKFKVGEPIYRCKECSFDDTCVLCVNCFNPKDHTRHHVYTTICTEFNNGICDCGDKEAWNHTLFCKAEEG | 7.2 |

Please find the next binder below.
Asked: In one line, give reported Octet response of the entry PS621 (other, UBR protein (UBR-box) parent of PS1101-PS1122) MHSKFSHAGRICGAKFKVGEPIYRCKECSFDDTCVLCVNCFNPKDHTGHHVYTTICTEFNNGICDCGDKEAWNHTLFCKAEEG .
Given back: 8.4
